Data provenance is paper PMC7540527.

The following molecules have recorded MIC on E. faecalis 15376 VanA.
Express your answer in µg/mL, writing the number without its unit.

| Molecule | Unit tag | Experimental result |
| --- | --- | --- |
| CC(=O)NC1C(OC2c3ccc(c(Cl)c3)Oc3cc4cc(c3O)Oc3ccc(cc3Cl)CC3NC(=O)C(n5cc(COCCOCCCC(F)(F)C(F)(F)C(F)(F)C(F)(F)F)nn5)c5ccc(O)c(c5)Oc5cc(O)cc(c5)C(NC3=O)C(=O)NC4C(=O)NC3C(=O)NC2C(=O)NC(C(=O)O)c2cc(O)cc(O)c2-c2cc3ccc2O)OC(CO)C(O)C1O (stereo not shown) | µg/mL | 1 |
| CC(=O)NC1C(OC2c3ccc(c(Cl)c3)Oc3cc4cc(c3O)Oc3ccc(cc3Cl)CC3NC(=O)C(n5cc(COCCOCCCC(F)(F)C(F)(F)C(F)(F)C(F)(F)C(F)(F)C(F)(F)C(F)(F)C(F)(F)F)nn5)c5ccc(O)c(c5)Oc5cc(O)cc(c5)C(NC3=O)C(=O)NC4C(=O)NC3C(=O)NC2C(=O)NC(C(=O)O)c2cc(O)cc(O)c2-c2cc3ccc2O)OC(CO)C(O)C1O (stereo not shown) | µg/mL | 256 |
| CN[C@H](CC(C)C)C(=O)N[C@H]1C(=O)N[C@@H](CC(N)=O)C(=O)N[C@H]2C(=O)N[C@H]3C(=O)N[C@H](C(=O)N[C@H](C(=O)O)c4cc(O)cc(O)c4-c4cc3ccc4O)[C@H](O)c3ccc(c(Cl)c3)Oc3cc2cc(c3O[C@@H]2O[C@H](CO)[C@@H](O)[C@H](O)[C@H]2O[C@H]2C[C@](C)(N)[C@H](O)[C@H](C)O2)Oc2ccc(cc2Cl)[C@H]1O | µg/mL | 256 |

MIC measured on CC(=O)NC1C(OC2c3ccc(c(Cl)c3)Oc3cc4cc(c3O)Oc3ccc(cc3Cl)CC3NC(=O)C(n5cc(COCCOCCOCCOCCOCCCC(F)(F)C(F)(F)C(F)(F)C(F)(F)C(F)(F)C(F)(F)C(F)(F)C(F)(F)F)nn5)c5ccc(O)c(c5)Oc5cc(O)cc(c5)C(NC3=O)C(=O)NC4C(=O)NC3C(=O)NC2C(=O)NC(C(=O)O)c2cc(O)cc(O)c2-c2cc3ccc2O)OC(CO)C(O)C1O (stereo not shown) = 32
